Listed compounds paired with reported IC50
molecular target: CXCR4 receptor (Homo sapiens); construct: 50 μL of Jurkat human T-cell leukemia cells (6×10^6 cells/mL) suspended in buffer; endogenous in cells; host or cells: Jurkat human T-cell leukemia cells; assay: Inhibition of 125I-CXCL12 binding to CXCR4 receptor on Jurkat cells; conditions: Table 1, 125I-CXCL12, 1 hour at room temperature, compounds as acetate salt, read-out: IC50 (nM), inhibitory activity against CXCL12 binding to CXCR4 receptor
Sequence (P61073 whole entry): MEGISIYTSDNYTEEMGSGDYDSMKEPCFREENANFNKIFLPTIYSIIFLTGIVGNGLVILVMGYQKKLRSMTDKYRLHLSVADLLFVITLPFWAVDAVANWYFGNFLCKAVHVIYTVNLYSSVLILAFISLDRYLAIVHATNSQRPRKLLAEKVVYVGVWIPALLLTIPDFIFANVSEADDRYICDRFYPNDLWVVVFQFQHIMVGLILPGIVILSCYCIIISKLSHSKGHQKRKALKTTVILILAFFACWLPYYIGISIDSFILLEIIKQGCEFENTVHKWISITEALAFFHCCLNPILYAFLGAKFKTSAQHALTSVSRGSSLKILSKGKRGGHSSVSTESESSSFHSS
Bridge positions count the residues as written; N and C are the ends. Square brackets hold non-standard residues; d marks the D form. Peptide text beside a SMILES is read from it. * marks the point of attachment. X4 = CN(C)C(=N[C@@H](CCCNC(=N)N)C(=O)*)N(C)C; 2Nal = N[C@@H](Cc1ccc2ccccc2c1)C(=O)O; X1 = N=C(N)NCCC[C@H](NC(=N)N)C(=O)*; Benzoyl(4-F) = O=C(c1ccc(F)cc1)*; dCit = NC(=O)NCCC[C@@H](N)C(=O)O; Cit = NC(=O)NCCC[C@H](N)C(=O)O
Number only, in nM; omit the unit.

compound	target_system	property_measured	numeric_value
CN(C)C(=N[C@@H](CCCNC(=N)N)C(=O)N[C@@H](CCCNC(=N)N)C(=O)N[C@@H](Cc1ccc2ccccc2c1)C(=O)N[C@H]1CSSC[C@@H](C(=O)N[C@@H](CCCNC(=N)N)C(N)=O)NC(=O)[C@H](CCCNC(N)=O)NC(=O)[C@H](CCCNC(=N)N)NC(=O)[C@H](Cc2ccc(O)cc2)NC(=O)[C@@H]2CCCN2C(=O)[C@@H](CCCNC(N)=O)NC(=O)[C@H](CCCCN)NC(=O)[C@H](CCCNC(N)=O)NC(=O)[C@H](Cc2ccc(O)cc2)NC1=O)N(C)C [TF18] (X4-R[2Nal]CY[Cit]K[dCit]PYR[Cit]CR-NH2; disulfide 3-12)	CXCR4 receptor (Homo sapiens)	IC50	8
N=C(N)NCCC[C@H](NC(=O)[C@@H]1CSSC[C@H](NC(=O)[C@H](Cc2ccc3ccccc3c2)NC(=O)[C@H](CCCNC(=N)N)NC(=O)[C@@H](N)CCCNC(=N)N)C(=O)N[C@@H](Cc2ccc(O)cc2)C(=O)N[C@@H](CCCNC(=N)N)C(=O)N[C@@H](CCCCN)C(=O)N[C@H](CCC(=O)O)C(=O)N2CCC[C@H]2C(=O)N[C@@H](Cc2ccc(O)cc2)C(=O)N[C@@H](CCCNC(=N)N)C(=O)N[C@@H](CCCNC(N)=O)C(=O)N1)C(=O)O [TE14005] (H-RR[2Nal]CYRK[dE]PYR[Cit]CR-OH; disulfide 4-13)	CXCR4 receptor (Homo sapiens)	IC50	2.2
CC(=O)N[C@@H](CCCNC(=N)N)C(=O)N[C@@H](CCCNC(=N)N)C(=O)N[C@@H](Cc1ccc2ccccc2c1)C(=O)N[C@H]1CSSC[C@@H](C(=O)N[C@@H](CCCNC(=N)N)C(N)=O)NC(=O)[C@H](CCCNC(N)=O)NC(=O)[C@H](CCCNC(=N)N)NC(=O)[C@H](Cc2ccc(O)cc2)NC(=O)[C@@H]2CCCN2C(=O)[C@@H](CCC(=O)O)NC(=O)[C@H](CCCCN)NC(=O)[C@H](CCCNC(N)=O)NC(=O)[C@H](Cc2ccc(O)cc2)NC1=O [TF1] (Ac-RR[2Nal]CY[Cit]K[dE]PYR[Cit]CR-NH2; disulfide 4-13)	CXCR4 receptor (Homo sapiens)	IC50	11
N=C(N)NCCC[C@H](NC(=O)[C@@H]1CSSC[C@H](NC(=O)[C@H](Cc2ccc3ccccc3c2)NC(=O)[C@H](CCCNC(=N)N)NC(=N)N)C(=O)N[C@@H](Cc2ccc(O)cc2)C(=O)N[C@@H](CCCNC(N)=O)C(=O)N[C@@H](CCCCN)C(=O)N[C@H](CCC(=O)O)C(=O)N2CCC[C@H]2C(=O)N[C@@H](Cc2ccc(O)cc2)C(=O)N[C@@H](CCCNC(=N)N)C(=O)N[C@@H](CCCNC(N)=O)C(=O)N1)C(N)=O [TF9] (X1-[2Nal]CY[Cit]K[dE]PYR[Cit]CR-NH2; disulfide 2-11)	CXCR4 receptor (Homo sapiens)	IC50	250

**Q:** Give the measured IC50 for N=C(N)NCCC[C@H](NC(=O)[C@@H]1CSSC[C@H](NC(=O)[C@H](Cc2ccc3ccccc3c2)NC(=O)[C@H](CCCNC(=N)N)NC(=O)[C@H](CCCNC(=N)N)NC(=O)c2ccc(F)cc2)C(=O)N[C@@H](Cc2ccc(O)cc2)C(=O)N[C@@H](CCCNC(N)=O)C(=O)N[C@@H](CCCCN)C(=O)N[C@H](CCC(=O)O)C(=O)N2CCC[C@H]2C(=O)N[C@@H](Cc2ccc(O)cc2)C(=O)N[C@@H](CCCNC(=N)N)C(=O)N[C@@H](CCCNC(N)=O)C(=O)N1)C(N)=O [TF5] ({Benzoyl(4-F)}-RR[2Nal]CY[Cit]K[dE]PYR[Cit]CR-NH2; disulfide 4-13)
**A:** 2.8

**Q:** Give the measured IC50 for N=C(N)NCCC[C@H](NC(=O)[C@@H]1CSSC[C@H](NC(=O)[C@H](Cc2ccc3ccccc3c2)NC(=O)[C@@H](N)CCCNC(=N)N)C(=O)N[C@@H](Cc2ccc(O)cc2)C(=O)N[C@@H](CCCNC(N)=O)C(=O)N[C@@H](CCCCN)C(=O)N[C@H](CCC(=O)O)C(=O)N2CCC[C@H]2C(=O)N[C@@H](Cc2ccc(O)cc2)C(=O)N[C@@H](CCCNC(=N)N)C(=O)N[C@@H](CCCNC(N)=O)C(=O)N1)C(N)=O [TF17] (H-R[2Nal]CY[Cit]K[dE]PYR[Cit]CR-NH2; disulfide 3-12)
**A:** 79

**Q:** Give the measured IC50 for N=C(N)NCCC[C@H](NC(=O)[C@@H]1CSSC[C@H](NC(=O)[C@H](Cc2ccc3ccccc3c2)NC(=O)[C@H](CCCNC(=N)N)NC(=O)[C@@H](N)CCCNC(=N)N)C(=O)N[C@@H](Cc2ccc(O)cc2)C(=O)N[C@H](CCC(=O)O)C(=O)N[C@@H](CCCCN)C(=O)N[C@H](CCCNC(N)=O)C(=O)N2CCC[C@H]2C(=O)N[C@@H](Cc2ccc(O)cc2)C(=O)N[C@@H](CCCNC(=N)N)C(=O)N[C@@H](CCCNC(N)=O)C(=O)N1)C(N)=O [TE14012] (H-RR[2Nal]CY[dE]K[dCit]PYR[Cit]CR-NH2; disulfide 4-13)
**A:** 5.4

**Q:** Give the measured IC50 for CN(C)C(=N[C@@H](CCCNC(=N)N)C(=O)N[C@@H](CCCNC(=N)N)C(=O)N[C@@H](Cc1ccc2ccccc2c1)C(=O)N[C@H]1CSSC[C@@H](C(=O)N[C@@H](CCCNC(=N)N)C(N)=O)NC(=O)[C@H](CCCNC(N)=O)NC(=O)[C@H](CCCNC(=N)N)NC(=O)[C@H](Cc2ccc(O)cc2)NC(=O)[C@@H]2CCCN2C(=O)[C@@H](CCC(=O)O)NC(=O)[C@H](CCCCN)NC(=O)[C@H](CCCNC(N)=O)NC(=O)[C@H](Cc2ccc(O)cc2)NC1=O)N(C)C [TF3] (X4-R[2Nal]CY[Cit]K[dE]PYR[Cit]CR-NH2; disulfide 3-12)
**A:** 9.6
